Target: T1, O5-bH
T1 chain: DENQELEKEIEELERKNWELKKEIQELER
Assay: two-hybrid library CCNG1;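 further: natural log of median RNA to DNA barcode read ratio; higher means stronger binding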
Quick list: interaction score per entry.
Kindly provide the number alone.

INSERT INTO results (binder, reading) VALUES
  ('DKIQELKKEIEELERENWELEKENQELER [O11-bH]', -3.76);

Problem: Name the reported interaction score value associated with the binder DKNQELKKENEELEREIWELEKEIQELER [O1-bH]
Result: -1.92

Problem: Name the reported interaction score value associated with the binder DEIQELEKENEELERKIWELKKENQELER [O15-bH]
Result: -1.6

Problem: Name the reported interaction score value associated with the binder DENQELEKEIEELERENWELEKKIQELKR [O14-bH]
Result: -1.91

Problem: Name the reported interaction score value associated with the binder DKIQELKKEIEELERKNWELKKKNQELKR [O4-bH]
Result: -1.47

Problem: Name the reported interaction score value associated with the binder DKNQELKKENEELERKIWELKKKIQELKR [O10-bH]
Result: 0.349

Problem: Name the reported interaction score value associated with the binder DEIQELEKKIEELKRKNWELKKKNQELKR [O12-bH]
Result: -1.26

Problem: Name the reported interaction score value associated with the binder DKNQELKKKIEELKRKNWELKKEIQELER [O13-bH]
Result: 0.194
